# assay: decrease of insulin promoter-GFP reporter – imaging, high-content screening, mouse beta cells (AID 1628)
# condition-label: MIN6 insulin promoter GFP reporter, at 5 µM, active compounds read low
Among all 190,000 compounds or so, about 930 (0.49%) were called active. Some of the results follow. Potency and affinity values are given separately.
measurement-name: z-score
Provide a numeric answer; units are not to be included.

Some solved cases for reference:
compound="CC(Sc1ccccc1)C(=O)NN=C1CCCCCC1 (stereo unspecified)" measurement_name=z-score recorded_number=8.07
compound="CCC(=O)N1c2ccccc2C(N(C(C)=O)c2ccccc2)CC1C (stereo unspecified)" measurement_name=z-score recorded_number=0.92
compound=COc1cc(NC(=O)c2ccccc2)c(OC)cc1NC(=O)CN1CCOCC1 measurement_name=z-score recorded_number=-3.01
compound="CCOC(=O)c1ccc(NC(=O)COc2ccc(S(=O)(=O)NC(C)CC)cc2)cc1 (stereo unspecified)" measurement_name=z-score recorded_number=3.08

Ask | Entry under review: c1ccc(-n2ncc3c(N4CCN(c5ccccn5)CC4)nc(N4CCCCCC4)nc32)cc1 . Reported z-score?
Reply | 4.11

Ask | Entry under review: O=C(CCSc1ccc(Cl)cc1)NN=C1CCCCCC1 . Reported z-score?
Reply | 3.37

Ask | Entry under review: Cc1ccc(-c2cc(C(F)(F)F)n3nc(C(=O)NCCCn4ccnc4)cc3n2)cc1C . Reported z-score?
Reply | -5.59

Ask | Entry under review: CC1CCN(C(=O)c2cc3nc(C4CC4)cc(C(F)(F)F)n3n2)CC1 . Reported z-score?
Reply | -0.53
